Test system: Vero E6 infected with SARS-CoV-2
METHOD: inhibition of SARS-CoV-2 cytopathic effect; higher = more antiviral protection, active = above 15
SETUP CONDITIONS: 833.33 nM; 48 h
REPORTED ENDPOINT: inhibition of SARS-CoV-2 cytopathic effect (%)
One number for each entry, in %.

1) Oc1c(I)cc(Cl)c2cccnc12
-5.93
2) CC(=O)[C@@]1(O)CC[C@H]2[C@@H]3C[C@H](C)C4=CC(=O)C=C[C@]4(C)[C@@]3(F)[C@@H](O)C[C@@]21C
-0.97
3) Cc1cccc(Nc2ccccc2C(=O)O)c1C
-1.03
4) C#C[C@]1(OC(C)=O)CC[C@H]2[C@@H]3CCC4=C[C@@H](OC(C)=O)CC[C@@H]4[C@H]3CC[C@@]21C [ethynodiol-diacetate]
-2.62
5) Cc1ccc(NC(=O)c2ccc(CN3CCN(C)CC3)cc2)cc1Nc1nc(-c2cccnc2)cs1
1.93
6) Cn1cnc([N+](=O)[O-])c1Sc1ncnc2[nH]cnc12
3.46
7) Cc1nn(C)c2nc(NNC(=O)Nc3cc(Cl)nc(Cl)c3)cc(C(C)C)c12
-1.22
8) Oc1cccc(-c2c3nc(c(-c4cccc(O)c4)c4ccc([nH]4)c(-c4cccc(O)c4)c4nc(c(-c5cccc(O)c5)c5ccc2[nH]5)CC4)C=C3)c1
-2.48
9) CN(C)Cc1ccc(S(=O)(=O)n2ccc(/C=C/C(=O)NO)c2)cc1
-9.24
10) NCCCCN=C(N)N
-2.12

Your task in this section: give inhibition of SARS-CoV-2 cytopathic effect for each listed record.
1. CNC(=O)c1cc(Oc2ccc(NC(=O)Nc3ccc(Cl)c(C(F)(F)F)c3)c(F)c2)ccn1
2. CN1C(=O)N(c2cc(Cl)cc(Cl)c2)C(=O)[C@]12CN(Cc1cc(C(=O)O)cs1)C[C@H]2c1ccc(C#N)cc1
3. Cc1ccc(C(=O)Nc2ccc(CN3CCN(C)CC3)c(C(F)(F)F)c2)cc1C#Cc1cnc2[nH]ncc2c1
4. OC[C@H]1O[C@@H](Oc2cc(O)cc(/C=C/c3ccc(O)cc3)c2)[C@H](O)[C@@H](O)[C@@H]1O
5. C[C@]12C[C@H](O)[C@H]3[C@@H](CCC4=CC(=O)CC[C@@]43C)[C@@H]1CC[C@@H]2C(=O)CO

[-1.69, 0.49, -8.47, 9.49, -0.38]

Can you look up the measured inhibition of SARS-CoV-2 cytopathic effect of "CC(=O)NCCC(=O)N[C@@H](Cc1c[nH]cn1)C(=O)O" for me?
-2.97

* * *

System: Vero E6 infected with SARS-CoV-2
METHOD: SARS-CoV-2 infection rate relative to infected DMSO; higher = more infection, active = 60 or less
SETUP CONDITIONS: 24 h
Would you kindly list SARS-CoV-2 infection rate for each of these compounds?

1. CN(C(=O)Cc1ccccc1)[C@H](CN1CCCC1)c1ccccc1 (10 µM)
102% (inactive)
2. C#CC1(OCC(O)CN2CCN(c3cccc(C(F)(F)F)c3)CC2)CCCCC1 (stereo not given) [terciprazine] (10 µM)
104% (inactive)
3. NCCS(=O)(=O)O [taurine] (10 µM)
94.5% (inactive)

Hi, could you look up SARS-CoV-2 infection rate for each item in my list?
1. CN1C(C(=O)Nc2ccccn2)=C(O)c2sccc2S1(=O)=O [tenoxicam] (10 µM)
2. NC(=O)NC(=O)Cc1ccccc1 [phenacemide] (10 µM)

108% (inactive)
114% (inactive)

* * *

Tested on: Vero E6 infected with SARS-CoV-2
METHOD: inhibition of SARS-CoV-2 cytopathic effect; higher = more antiviral protection, active = above 15
SETUP CONDITIONS: 8.33 nM; 48 h
REPORTED ENDPOINT: inhibition of SARS-CoV-2 cytopathic effect

Answered cases to consult:
1) COC(=O)c1cc(OC)c2c(c1-c1c(C(=O)OC)cc(OC)c3c1OCO3)OCO2 [bifendate]
2.56% (inactive)
2) O=C(Oc1ccccc1C(=O)O)c1ccccc1O
-8.94% (inactive)
3) CCc1cc(-c2[nH]nc(C)c2-c2ccc3c(c2)OCCO3)c(O)cc1O
-1.99% (inactive)
4) CC1=C(CCC(=O)O)c2cc3[nH]c(cc4nc(cc5[nH]c(cc1n2)c(C)c5C(C)O)C(C)=C4C(C)O)c(C)c3CCC(=O)O (stereo not drawn)
5% (inactive)
5) CN(C)C(=O)COC(=O)Cc1ccc(OC(=O)c2ccc(NC(=N)N)cc2)cc1 [camostat-mesilate]
-0.38% (inactive)

Below is a list of compounds. For each, state its recorded inhibition of SARS-CoV-2 cytopathic effect.
1. CC[C@@]1(O)C(=O)OCc2c1cc1n(c2=O)Cc2cc3c(CN(C)C)c(O)ccc3nc2-1
2. O=C(Nc1cccc(C(F)(F)F)c1)Nc1cc(S(=O)(=O)NC2CC2)ccc1-c1ccsc1
3. CCC(CC)C(c1ccc(Nc2nc3ccccc3s2)cc1)n1cncn1 (stereo not drawn)

1. 1.66% (inactive)
2. -0.85% (inactive)
3. 0.68% (inactive)

* * *

System: Vero E6 infected with SARS-CoV-2
METHOD: morphology score (similarity to uninfected cells); higher = more like uninfected cells
SETUP CONDITIONS: 24 h
REPORTED ENDPOINT: morphology score
One number for each entry.

1. COc1c(N2C[C@@H]3CCCN[C@@H]3C2)c(F)cc2c(=O)c(C(=O)O)cn(C3CC3)c12 [moxifloxacin] (10 µM)
0.0295

Give me morphology score for each of these molecules, listed below.
1. Cc1nc2c(O)cccc2c(=O)[nH]1 (10 µM)
2. C/C(=N\Nc1nnc2c(n1)[nH]c1c(C)cccc12)c1ccccn1 (10 µM)
3. COC(=O)Nc1ccc(-c2nc(N3CCOCC3)c3cnn(C4CCN(C(=O)OC)CC4)c3n2)cc1 (0.833333 µM)

-0.0261
0.01
0.00734

Would you mind listing morphology score for each of the following molecules?
1. CCc1cccc2c3c([nH]c12)C(CC)(CC(=O)O)OCC3 (centres undefined) [etodolac] (10 µM)
2. O=C1NC(=O)/C(=C/c2ccc3nccc(-c4ccncc4)c3c2)S1 (0.833333 µM)

[-0.0116, 0.151]

* * *

Can you tell me inhibition of SARS-CoV-2 cytopathic effect for the items I'm about to list?
Tested on: Vero E6 infected with SARS-CoV-2
METHOD: inhibition of SARS-CoV-2 cytopathic effect; higher = more antiviral protection, active = above 15
SETUP CONDITIONS: 833.33 nM; 48 h
Give bare numbers, in %.

1) N[C@@H](C(=O)O)c1ccc(C(=O)O)c(O)c1 (racemic) [4-carboxy-3-hydroxyphenylglycine-(RS)]
-0.355
2) FC(F)(F)c1cccc(C2=CCN(CCc3ccc4ccccc4c3)CC2)c1
0.49
3) CCC(CC)O[C@@H]1C=C(C(=O)O)C[C@H](N)[C@H]1NC(C)=O [oseltamivir-carboxylate]
1.32
4) O=C1C2CCN(CC2)C1(CO)CO
2.96
5) CCC1(CC)C(=O)NC(=O)N(C)C1=O
0.78
6) COC(=O)C(Cc1ccc(OCCn2c(=O)sc3cc(C(=O)c4ccccc4)ccc32)cc1)C(=O)OC
-1.22
7) Cc1cc(C)cc(C(=O)N(C)[C@H](Cc2ccc(-c3ccccc3)cc2)C(=O)N[C@@H](Cc2c[nH]c3ccccc23)C(=O)O)c1
0.47
8) Nc1ccc(C(=O)O)cc1 [potassium-p-aminobenzoate]
-0.2
9) CN1CCN(CCCCN2C(=O)CN(/N=C/c3ccc(-c4ccc(Cl)cc4)o3)C2=O)CC1 [azimilide]
0.41
10) CCS(=O)(=O)CCn1c([N+](=O)[O-])cnc1C
4.13

Give inhibition of SARS-CoV-2 cytopathic effect for each listed item.
1. NC(=S)N/N=C/c1coc2ccccc2c1=O.[Cl][Cu][Cl]
2. O=C(CCCCCCC(=O)Nc1cccnc1)NO [pyroxamide]
3. OCc1cncc(F)c1
4. CN1CCC(Nc2ncc3ncnc(Nc4ccc(F)c(Cl)c4)c3n2)CC1

-0.55
-1.43
-0.19
-7.55

* * *

Give measured inhibition of SARS-CoV-2 cytopathic effect for each item. Keep answers brief.
Tested on: Vero E6 infected with SARS-CoV-2
METHOD: inhibition of SARS-CoV-2 cytopathic effect; higher = more antiviral protection, active = above 15
SETUP CONDITIONS: 1 nM; 48 h
Numbers only, in %.

Worked examples follow.
1) CC(=O)OCC(=O)[C@@]1(O)[C@@H](C)C[C@H]2[C@@H]3CCC4=CC(=O)C=C[C@]4(C)[C@@]3(F)[C@@H](O)C[C@@]21C [betamethasone-acetate]
-1.36
2) O=C(Nc1ccc(Cl)cc1)Nc1cccc(-c2cccc(N3CCCC3)n2)c1
1
3) CC(C)c1ccc(NC(=O)Cn2cnc3c2c(=O)n(C)c(=O)n3C)cc1
-0.13

Quick request: inhibition of SARS-CoV-2 cytopathic effect for each listed item, please.
1. NC(=O)OCC(O)COc1ccc(Cl)cc1 (centres undefined) [chlorphensin-carbamate]
2. CC(=O)Oc1ccccc1C(=O)Oc1ccccc1C(=O)O
3. C[C@H]1CCc2c(cc(Br)c(F)c2Br)N1C=O
4. Cn1c(=O)c2c(ncn2CC2OCCO2)n(C)c1=O

[2.19, -1.51, -0.42, -0.49]

Below are some compounds; for each one, tell me its inhibition of SARS-CoV-2 cytopathic effect.
1. O=C(Nc1cc(Oc2cc(F)c(NC(=O)C3(C(=O)Nc4ccc(F)cc4)CC3)cc2F)ccn1)C1CC1
2. COc1cccc(N(C)C(=S)Oc2ccc3c(c2)CCCC3)n1 [liranaftate]

[-1, -2.95]
